- Test target: T1, TIGIT on human PBMCs stimulated by SEA (human, UniProt Q495A1 22-244)
- T1 construct: whole, on cells
- T1 sequence (looked up): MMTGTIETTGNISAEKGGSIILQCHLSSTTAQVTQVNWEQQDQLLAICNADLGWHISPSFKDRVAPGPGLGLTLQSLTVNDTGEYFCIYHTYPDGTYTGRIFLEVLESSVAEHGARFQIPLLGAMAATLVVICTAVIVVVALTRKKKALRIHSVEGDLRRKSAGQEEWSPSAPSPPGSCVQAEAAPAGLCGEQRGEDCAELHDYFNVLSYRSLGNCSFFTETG
- Protocol text: FACS; binding to SEA-stimulated human PBMC
- Protocol: The fresh human PBMCs (AllCells, PB004-C) were adjusted to a density of 5×10⁵/mL, added with SEA (Toxin Technology, Inc., CAT: AT101) to 100 ng/ml, and cultured at 37° C. with 5% CO₂ for 3 days. The cells were collected 3 days later, washed once with PBS (Hyclone, CAT #SH30256), added with Fc Block (BD, 564220) and then incubated at 4° C. for 10 minutes. […] After washing twice with PBS, the cell samples were resuspended with 1% BSA-PBS, 100 μL/well and then analyzed by flow cytometry (BD, Canto II).
Entries and their measured EC50 follow.
Experimental readout: EC50 (nM)

INSERT INTO assay_data (binder, observed_result) VALUES
  ('TIGIT-005-H2L1d (antibody, V domains shown, Humanized anti-TIGIT antibody with NG-site mutation in VL) VH: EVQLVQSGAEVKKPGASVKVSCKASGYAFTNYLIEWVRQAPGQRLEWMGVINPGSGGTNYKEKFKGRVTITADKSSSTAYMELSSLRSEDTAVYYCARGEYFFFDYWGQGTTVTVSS VL: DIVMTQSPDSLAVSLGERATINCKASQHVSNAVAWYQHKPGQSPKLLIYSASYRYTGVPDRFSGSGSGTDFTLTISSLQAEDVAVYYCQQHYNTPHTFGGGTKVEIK', 0.0602),
  ('TIGIT-070-H1L1 (antibody, V domains shown, Humanized anti-TIGIT antibody) VH: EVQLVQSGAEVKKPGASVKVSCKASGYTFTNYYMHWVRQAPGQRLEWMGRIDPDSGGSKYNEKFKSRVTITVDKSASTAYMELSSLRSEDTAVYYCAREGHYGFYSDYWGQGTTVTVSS VL: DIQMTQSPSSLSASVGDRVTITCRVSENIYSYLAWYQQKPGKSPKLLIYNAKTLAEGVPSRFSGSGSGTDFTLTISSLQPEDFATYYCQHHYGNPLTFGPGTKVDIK', 0.121),
  ('TIGIT-006-H5L3 (antibody, V domains shown, Humanized anti-TIGIT antibody) VH: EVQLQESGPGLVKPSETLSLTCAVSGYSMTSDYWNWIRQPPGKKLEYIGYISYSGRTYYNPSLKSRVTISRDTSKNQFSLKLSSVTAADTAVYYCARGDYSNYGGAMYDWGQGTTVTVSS VL: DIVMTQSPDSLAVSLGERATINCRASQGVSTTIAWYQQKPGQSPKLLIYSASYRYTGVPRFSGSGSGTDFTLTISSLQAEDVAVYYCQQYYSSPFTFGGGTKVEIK', 0.0916),
  ('TIGIT-002-H4L3 (antibody, V domains shown, Humanized anti-TIGIT antibody) VH: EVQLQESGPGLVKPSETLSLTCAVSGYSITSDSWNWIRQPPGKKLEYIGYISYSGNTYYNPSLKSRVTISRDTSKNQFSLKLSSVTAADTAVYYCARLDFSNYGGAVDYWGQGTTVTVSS VL: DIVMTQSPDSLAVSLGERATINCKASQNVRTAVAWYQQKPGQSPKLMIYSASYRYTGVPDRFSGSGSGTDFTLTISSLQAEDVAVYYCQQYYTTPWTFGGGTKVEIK', 0.0436);

Data origin, for the record: patent US20240343803A1
